Test: toxicity (LD50) by intravenous administration in mice
Settings: mouse, in vivo
Readout Type: LD50 (mg/kg)
Write it as a number; the unit mg/kg goes unstated.

CCCC[C@H]1CC[C@H]([C@H](O)/C=C/[C@H]2[C@H](O)CC(=O)[C@@H]2CC(=O)CCCCC(=O)N[C@@H](Cc2ccccc2)C(=O)O)C1: 22

Consider the additional molecule presented here.
stdin: Entry under review: `CCCC[C@H]1CC[C@H]([C@H](O)/C=C/[C@H]2[C@H](O)CC(=O)[C@@H]2CC(=O)CCCCC(=O)N[C@@H](CC(C)C)C(=O)O)C1` . Reported LD50?
stdout: 30
